Tested on: S. enterica typhimurium tolC KO
Test: growth AUC normalised to DMSO control (median) (fraction of control); higher = less growth inhibition, active = hit call of the paper
Experimental setup: 20 µM
Structures can show the parent of a compound that is named as a salt.
# maps each entry to its growth AUC normalised to DMSO control
Value kind: growth AUC normalised to DMSO control

> print(dat)
                                    compound                  target.of.assay  number
 1  CC[N+](C)(C)Cc1ccccc1Br [Bretylium tosylate]  S. enterica typhimurium tolC KO   0.999
 2          CCc1cc(C(N)=S)ccn1 [Ethionamide]  S. enterica typhimurium tolC KO   0.994
 3                   CC1=NN(c2ccccc2)C(=O)C1  S. enterica typhimurium tolC KO   0.982
 4  Nc1nc(NC2CC2)c2ncn([C@H]3C=C[C@@H](CO)C3)c2n1 [Abacavir sulfate]  S. enterica typhimurium tolC KO       1
 5  CC(C)NCC(O)COc1ccc(CCOCC2CC2)cc1 (stereo not drawn) [Betaxolol hydrochloride]  S. enterica typhimurium tolC KO       1
 6  Nc1nc(N)nc(-c2cc(Cl)ccc2Cl)n1 [Irsogladine maleate]  S. enterica typhimurium tolC KO       1
 7  CCCCNc1ccc(C(=O)OCCOCCOCCOCCOCCOCCOCCOCCOCCOC)cc1 [Benzonatate]  S. enterica typhimurium tolC KO       1
 8  Cc1[nH]cnc1CN1CCc2c(c3ccccc3n2C)C1=O [Alosetron hydrochloride]  S. enterica typhimurium tolC KO   0.995
 9  OCCN1CCN(CCCN2c3ccccc3Sc3ccc(Cl)cc32)CC1  S. enterica typhimurium tolC KO   0.929
10          CCCCCCNC(=O)n1cc(F)c(=O)[nH]c1=O  S. enterica typhimurium tolC KO   0.717
11  CCOC(=O)C1=C(C)NC(C)=C(C(=O)OC)C1c1cccc([N+](=O)[O-])c1 (stereo not drawn)  S. enterica typhimurium tolC KO   0.982
12  CCC1NC(=O)c2cc(S(N)(=O)=O)c(Cl)cc2N1 (stereo not drawn)  S. enterica typhimurium tolC KO    1.01
13                     CCCCOC(=O)c1ccc(N)cc1  S. enterica typhimurium tolC KO    1.01
14  CC(=O)OCC(=O)[C@@]12N=C(C)O[C@@H]1C[C@H]1[C@@H]3CCC4=CC(=O)C=C[C@]4(C)[C@H]3[C@@H](O)C[C@@]12C  S. enterica typhimurium tolC KO   0.987
15  CC(=O)Nc1c(I)c(C(=O)N[C@H]2C(O)O[C@H](CO)[C@@H](O)[C@@H]2O)c(I)c(N(C)C(C)=O)c1I (stereo partly drawn) [Metrizamide]  S. enterica typhimurium tolC KO    1.01
16  CCN(CC)CCNC(=O)COc1ccc(OC)cc1 [Mefexamide hydrochloride]  S. enterica typhimurium tolC KO   0.998
17            Cc1cc2cc3c(C)cc(=O)oc3c(C)c2o1  S. enterica typhimurium tolC KO   0.955
18                        C1N2CN3CN1CN(C2)C3  S. enterica typhimurium tolC KO   0.991
19  CCCCC1(COC(=O)CCC(=O)O)C(=O)N(c2ccccc2)N(c2ccccc2)C1=O  S. enterica typhimurium tolC KO   0.985
20          O=C(O)CCC(=O)c1ccc(-c2ccccc2)cc1  S. enterica typhimurium tolC KO   0.993
21  C[C@H]1C[C@H]2[C@@H]3CCC4=CC(=O)C=C[C@]4(C)[C@@]3(F)[C@@H](O)C[C@]2(C)[C@@]1(O)C(=O)CO  S. enterica typhimurium tolC KO   0.991
22    Clc1ccccc1C(c1ccccc1)(c1ccccc1)n1ccnc1  S. enterica typhimurium tolC KO   0.829
23  CC(C)OC(=O)C(C(=O)OC(C)C)=C1SC=CS1 [Malotilate]  S. enterica typhimurium tolC KO   0.899

* * *

Test system: Shigella flexneri
Test: growth AUC normalised to DMSO control (fraction of control); higher = less growth inhibition, active = hit call of the paper
Experimental setup: 20 µM
Kind request: treat 1 as inclusive, so growth AUC normalised to DMSO control at 1 or higher is yes, anything lower is no.

Compound	Assigned label
CCn1cc(C(=O)O)c(=O)c2cc(F)c(N3CCNCC3)cc21	no
O=C(N/N=C/c1ccc([N+](=O)[O-])o1)c1ccc(O)cc1 [Nifuroxazide]	no
CCN(CC)C(=O)/C(C#N)=C/c1cc(O)c(O)c([N+](=O)[O-])c1	yes
CCCCOC(=O)c1ccc(O)cc1	no
CO[C@H]1/C=C/O[C@@]2(C)Oc3c(C)c(O)c4c(O)c(c(/C=N/N5CCN(C6CCCC6)CC5)c(O)c4c3C2=O)NC(=O)/C(C)=C\C=C\[C@H](C)[C@H](O)[C@@H](C)[C@@H](O)[C@@H](C)[C@H](OC(C)=O)[C@@H]1C	no

* * *

Tested on: S. enterica typhimurium WT
Test: growth AUC normalised to DMSO control (median) (fraction of control); higher = less growth inhibition, active = hit call of the paper
Experimental setup: 20 µM
Structures can show the parent of a compound that is named as a salt.
Value kind: growth AUC normalised to DMSO control

> print(dat)
                                   compound  number
1  C[C@]1(Cn2ccnn2)[C@H](C(=O)O)N2C(=O)C[C@H]2S1(=O)=O    0.99
2       Nc1ccn([C@@H]2CS[C@H](CO)O2)c(=O)n1       1
3  Cc1c(C)c2c(c(C)c1O)CCC(C)(COc1ccc(CC3SC(=O)NC3=O)cc1)O2 (stereo unspecified)   0.997
4  CC(C)n1c(/C=C/C(O)CC(O)CC(=O)O)c(-c2ccc(F)cc2)c2ccccc21 (stereo unspecified) [Fluvastatin sodium salt]       1
5  NS(=O)(=O)c1cc2c(cc1Cl)NC(CC1CCCC1)NS2(=O)=O (stereo unspecified) [Cyclopenthiazide]       1
6  O=c1[nH]c(=O)n([C@H]2C[C@H](O)[C@@H](CO)O2)cc1C(F)(F)F   0.964

* * *

System: S. enterica typhimurium tolC KO
Test: growth AUC normalised to DMSO control (median) (fraction of control); higher = less growth inhibition, active = hit call of the paper
Experimental setup: 20 µM
Where a name gives a salt, the structure may show the parent alone.
Outcome codes: true for active, false for inactive

Compound	Assigned label
C[C@H]1[C@@H](O)O[C@@H]2O[C@@]3(C)CC[C@H]4[C@H](C)CC[C@@H]1[C@@]24OO3	false
CN1CC2c3ccccc3Oc3ccc(Cl)cc3C2C1 (centres undefined) [Asenapine maleate]	false
CCc1oc2ccccc2c1C(=O)c1cc(I)c(O)c(I)c1	false
CCOC(=O)O[C@]1(C(=O)COC(=O)CC)CC[C@H]2[C@@H]3CCC4=CC(=O)C=C[C@]4(C)[C@H]3[C@@H](O)C[C@@]21C [Prednicarbate]	false
CC1(C)O[C@@H]2[C@@H](CO[C@@]3(COS(N)(=O)=O)OC(C)(C)O[C@@H]23)O1 [Topiramate]	false
CC[C@H]1OC(=O)[C@H](C)[C@@H](O[C@H]2C[C@@](C)(OC)[C@@H](O)[C@H](C)O2)[C@H](C)[C@@H](O[C@@H]2O[C@H](C)C[C@H](N(C)C)[C@H]2O)[C@](C)(OC)C[C@@H](C)C(=O)[C@H](C)[C@@H](O)[C@]1(C)O	true
CCCN(CCC)S(=O)(=O)c1ccc(C(=O)O)cc1	false
C[C@@H]1C[C@H]2[C@@H]3C[C@H](F)C4=CC(=O)C=C[C@]4(C)[C@@]3(F)[C@@H](O)C[C@]2(C)[C@@]1(O)C(=O)COC(=O)C(C)(C)C [Flumethasone pivalate]	false
Clc1ccc2c(c1)C(N1CCNCC1)=Nc1ccccc1O2	false
Cc1cn(-c2cc(NC(=O)c3ccc(C)c(Nc4nccc(-c5cccnc5)n4)c3)cc(C(F)(F)F)c2)cn1	false
Cc1nc(C)c(Cl)c(O)c1Cl	false
OC[C@H]1O[C@H](O[C@H]2O[C@H](CO)[C@@H](O)[C@H](O)[C@H]2O)[C@H](O)[C@@H](O)[C@@H]1O [Trehalose dihydrate]	false
COc1ccc(-c2noc(CC(=O)O)c2-c2ccc(OC)cc2)cc1	false
NCCc1c[nH]cn1 [Histamine dihydrochloride]	false
CC1=C(/C=C/C(C)=C/C=C/C(C)=C/C(=O)O)C(C)(C)CCC1	false
Nc1nc2n[nH]nc2c(=O)[nH]1	false
CCCCCN(CCCCC)C(=O)C(CCC(=O)O)NC(=O)c1ccc(Cl)c(Cl)c1 (centres undefined) [Lorglumide sodium salt]	false
CN(C)CCC(c1ccc(Cl)cc1)c1ccccn1 (centres undefined) [Chlorpheniramine maleate]	false
COc1cc(NS(=O)(=O)c2ccc(N)cc2)nc(OC)n1	false
C[N+](C)(C)CCOC(N)=O [Carbachol chloride]	false
CC12CC3CC(C)(C1)CC(N)(C3)C2 [Memantine hydrochloride]	false
O=C(O)CCc1nc(-c2ccccc2)c(-c2ccccc2)o1	false
CCC[C@@H]1C[C@@H](C(=O)N[C@@H]([C@H]2O[C@H](SC)[C@H](OP(=O)(O)O)[C@@H](O)[C@H]2O)[C@H](C)Cl)N(C)C1 [Clindamycin Phosphate]	false
CC(C)(S)C(N)C(=O)O (racemic)	false
CCOc1ccc(NC(=O)CC(C)O)cc1 (centres undefined)	false
NCCCC[C@H](N[C@@H](CCc1ccccc1)C(=O)O)C(=O)N1CCC[C@H]1C(=O)O	false
CCC[C@@H]1C[C@@H](C(=O)N[C@@H]([C@H]2O[C@H](SC)[C@H](O)[C@@H](O)[C@H]2O)[C@@H](C)O)N(C)C1 [Lincomycin hydrochloride]	false
CCN1CCN(Cc2ccc(Nc3ncc(F)c(-c4cc(F)c5nc(C)n(C(C)C)c5c4)n3)nc2)CC1	false
COc1ccccc1Oc1c(NS(=O)(=O)c2ccc(C(C)(C)C)cc2)nc(-c2ncccn2)nc1OCCO	false
